Assay: in vitro
Details: human, hela cells, % viability
Criterion: viability at 28.5 h, 10 µM strictly less than 90%. Met: y. Not met: n.

INPUT: # check: viability at 28.5 h, 10 µM < 90% for O=C1N=C(NC2CC3CCC2C3)SC12CCCO2 (stereo not shown) [CBK116312]
OUTPUT: n

INPUT: Would you kindly repeat that for COc1ccc2c(c1)CC(C(=O)N1CCc3sccc3C1c1cccs1)CO2 (stereo not shown) [CBK285628] ?
OUTPUT: n

INPUT: Same for COc1ccc(C[C@@H]2NC(=O)[C@@H]3CN(C(=O)c4ccc(OC)cc4)CCN3C2=O)cc1 [CBK289598]
OUTPUT: n

INPUT: // repeat for Nc1ncc(-c2cncnc2)nc1N1CCOCC1 [CBK063422] and report
OUTPUT: n

INPUT: Same thing, different molecule: O=C(NCc1ccco1)[C@@H]1C=CCN1C(=O)NCc1ccccc1 [CBK284293]
OUTPUT: n

INPUT: Now give it for CC(=O)N1CCCc2cc(C(O)CN3CCCC(C)C3)ccc21 (stereo not shown) [CBK282142] too.
OUTPUT: y

INPUT: CC(=O)Nc1cccc(-c2cncc(-c3ccc(O)cc3)n2)c1 [CBK123795] , same question.
OUTPUT: y

INPUT: Try the molecule CNc1nc(NCCc2cnc(=O)n(C)c2O)cc(C2CCOC2)n1 (stereo not shown) [CBK307156]
OUTPUT: n

INPUT: Cool, now Cc1c(C(=O)Nc2nc(-c3ccc(S(=O)(=O)N4CCOCC4)cc3)cs2)oc2ccc(Cl)cc12 [CBK267663]
OUTPUT: n

INPUT: Please do the same for CCOC(=O)c1[nH]c2ccccc2c1NC(=O)COc1ccc(Cl)cc1Cl [CBK160134] as well.
OUTPUT: n

INPUT: Try O=C(C1CCCO1)N1CCC(c2ccc(F)cc2)CC1 (stereo not shown) [CBK283484] next.
OUTPUT: y

INPUT: Also O=C(O)c1ccc(NC(=O)c2cn(-c3ccccc3)nc2-c2cc3ccccc3o2)cc1 [CBK266587C] , if possible.
OUTPUT: n

INPUT: Follow-up item: CC(C)CN1C[C@H]2N(C)C(=O)c3ccccc3C(=O)[C@@]2(C)C1 [CBK283477]
OUTPUT: y

INPUT: Then what about the molecule CSc1nc(O)c(C(c2ccc(C(=O)O)cc2)c2c(O)nc(SC)nc2O)c(O)n1 [CBK265288] ?
OUTPUT: n

INPUT: Next entry: O=C(NCCO)c1cccc(-c2cncc(NCCCN3CCOCC3)n2)c1 [CBK065432]
OUTPUT: n
